- Tested On: P. falciparum apicoplast DNA polymerase (Pf-apPOL) (Plasmodium falciparum)
- Sequence (Q8ILY1 entry or part of it): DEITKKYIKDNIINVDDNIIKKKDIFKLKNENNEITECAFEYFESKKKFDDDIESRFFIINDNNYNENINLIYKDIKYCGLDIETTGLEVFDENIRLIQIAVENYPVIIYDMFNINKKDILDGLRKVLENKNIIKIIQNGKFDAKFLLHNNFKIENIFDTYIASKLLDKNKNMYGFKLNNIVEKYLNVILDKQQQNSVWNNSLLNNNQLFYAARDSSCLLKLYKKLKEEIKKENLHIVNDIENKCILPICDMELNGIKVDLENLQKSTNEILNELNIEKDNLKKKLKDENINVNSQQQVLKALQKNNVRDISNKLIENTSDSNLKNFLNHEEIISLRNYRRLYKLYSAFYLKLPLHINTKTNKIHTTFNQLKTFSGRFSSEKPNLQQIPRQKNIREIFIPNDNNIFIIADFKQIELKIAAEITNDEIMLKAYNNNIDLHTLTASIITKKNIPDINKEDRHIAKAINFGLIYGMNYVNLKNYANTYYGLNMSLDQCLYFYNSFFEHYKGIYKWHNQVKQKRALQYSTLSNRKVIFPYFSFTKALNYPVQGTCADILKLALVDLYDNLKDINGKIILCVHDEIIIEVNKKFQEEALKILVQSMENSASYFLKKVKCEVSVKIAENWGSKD
- Assay Text: Fluorescence-based high-throughput DNA polymerase assay (molecular beacon), primary screen and dose-response;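 also: test concentration in µM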
- Type: biochemical
- Applied Conditions: DRC-2; 90'; concentration 10
So I've got a bunch of compounds here, and I need their % inhibition ApPOL 90' values.
Express the result in % but write the number alone.

Using the record for Cc1ccc(NC(=O)Cn2ccc3c(=O)[nH]ccc32)cc1F [Molecule 48, O=C(Cn1ccc2c1cc[nH]c2=O)Nc1ccc(c(c1)F)C] , state its measured % inhibition ApPOL 90'.
21

Using the record for `Cc1ccc(CCNC(=O)c2cnn3c(O)c(Cc4ccccc4F)c(C)nc23)cc1` , state its measured % inhibition ApPOL 90'.
19

Using the record for `O=c1cc(-c2ccccc2)oc2c(O)c(O)ccc12` , state its measured % inhibition ApPOL 90'.
16

Using the record for `O=c1cc(-c2ccccc2Cl)oc2c(NS(=O)(=O)c3cc(Cl)cc(Cl)c3O)ccc(O)c12` , state its measured % inhibition ApPOL 90'.
41

---

So I've got a bunch of molecules here, and I need their % inhibition apPOL 180' values.
- Tested On: UniProtKB Q8ILY1
- Assay Text: Fluorescence-based high-throughput DNA polymerase assay (molecular beacon), primary screen and dose-response;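 also: test concentration in µM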
- Format: biochemical
- Applied Conditions: DRC-2; 180'; concentration 40
Express the result in % but write the number alone.

Using the record for COc1ccc(NC(=O)Cn2ccc3c(=O)[nH]ccc32)cc1 [Molecule 13, COc1ccc(cc1)NC(=O)Cn1ccc2c1cc[nH]c2=O] , state its measured % inhibition apPOL 180'.
74

Using the record for `O=C1c2ccccc2C(=O)N1Oc1ccc([N+](=O)[O-])c([N+](=O)[O-])c1` , state its measured % inhibition apPOL 180'.
48

Using the record for `Cc1nc(C)c2c(n1)N(CC1CCCCC1)C(=O)CC2` , state its measured % inhibition apPOL 180'.
42

Using the record for CCCCCCCCCCCC1SCC(C(=O)O)N1C(C)=O (centres unmarked) , state its measured % inhibition apPOL 180'.
64

Using the record for `COc1ccc(C=C2Oc3c(ccc4c3CN(c3ccc5c(c3)OCO5)CO4)C2=O)cc1OC` , state its measured % inhibition apPOL 180'.
34

Using the record for `O=[N+]([O-])c1ccc(/C=C/c2ccc3ccccc3n2)o1` , state its measured % inhibition apPOL 180'.
69

Using the record for `COc1ccccc1CC(=O)N1CCc2c(nc3cc(-c4ccccc4Cl)[nH]n3c2=O)C1` , state its measured % inhibition apPOL 180'.
56

Using the record for O=C(Cn1ccc2c(=O)[nH]ccc21)Nc1ccc(Cl)cc1 [Molecule 36, O=C(Cn1ccc2c1cc[nH]c2=O)Nc1ccc(cc1)Cl] , state its measured % inhibition apPOL 180'.
69

---

- System: chloroquine resistant P. falciparum parasites (strain Dd2)
- Assay Text: Parasite growth inhibition assay in human red blood cells (flow cytometry, acridine orange)
- Type: cell-based
- Applied Conditions: Plasmodium falciparum, Erythrocyte; Dd2 parasites, 1 mM isopentylpyrophosphate (IPP) in the growth media; read-out: EC50 + IPP
Quantity: pEC50
Remember the convention: pEC50 equals -log10 of concentration in molar.

Using the record for `Cn1nc(-c2nnc(-c3ccccc3F)o2)c2c1CCN(C(=O)c1ccccc1Cl)C2` , state its measured pEC50.
5.00

Using the record for `O=C(O)c1ccc(-c2nc3cc(-c4ccc5nc(-c6ccc(C(=O)O)cc6)[nH]c5c4)ccc3[nH]2)cc1` , state its measured pEC50.
5.03
